target: T1, Soluble heterodimeric CD3 protein (hCD3-epsilon/hCD3-delta) with either a human Fc tag (hFcΔAdp/hFc) or a … (human, UniProt P07766 23-126; P04234 22-105); test: SPR Biacore 25C antibody-capture
T1 construct: also called hCD3ε/δ; not shown: Fc tag: human (hFcΔAdp/hFc)
T1 sequence (P07766 23-126 limits assumed, stated change not applied, chain 1 of 2): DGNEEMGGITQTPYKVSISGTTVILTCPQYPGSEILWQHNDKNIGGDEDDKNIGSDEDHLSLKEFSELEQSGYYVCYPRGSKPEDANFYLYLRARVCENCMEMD
T1 sequence (P04234 22-105 limits assumed, stated change not applied, chain 2 of 2): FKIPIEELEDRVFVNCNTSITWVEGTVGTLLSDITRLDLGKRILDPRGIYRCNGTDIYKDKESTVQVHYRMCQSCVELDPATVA
Here, each record is paired with measured T½ data.
Output spec: scalar in min, unitless text.

Worked cases, answers included:
| BINDER | T½ / min |
| --- | --- |
| H1H5788P (antibody, V domains shown, H1H: human IgG1 Fc; divalent) VH: EVQLVESGGGLVQPGRSLRLSCAASGFTFDDYTMHWVRQAPGKGLEWVSGISWNSGSIGYADSVKGRFTISRDNAKNSLYLQMNSLRAEDTALFYCAKDQSGYGHYYYGMDVWGQGTTVTVSS VL: EIVMTQSPATLSVSPGERATLSCRASQSVSSNLAWYQQKPGQAPRLLIYGASTRATDIPARFSGSGSGTEFTLTISSLQSEDFAVYHCQQYNNWPLTFGGGTKVEIK | 40 |
| H1H5758B (antibody, human IgG1, V domains shown, H1H: human IgG1 Fc; divalent) VH: EVQLVESGGGVVQPGRSLRLSCAASGFTFSSYGMHWVRQAPGKGLEWVTVILHDGSNRYYADSVKGRFTISRDNSKNTLYLQMNILRAEDTAVYYCTKGAMVRGVPYNHYYGMDVWGQGTTVTVSS VL: DIVMTQSPSSLSASVGDRVTITCRASQGIRNDLGWYQQKPGKAPKRLIYAASNLQSGVPSRFSGSGSGTEFTLTISSLQPEDFATYYCLQHNSYPYTFGQGTKLEIKR | 10 |

Request: Recorded T½ of H1H5793B (antibody, human IgG1, V domains shown, H1H: human IgG1 Fc; divalent) VH: QVQLVQSGTEVKKPGASMKVSCKASGYTFTGYYIHWVRQAPGQGLEWMGWINPNSDVTKYAQKFQGRVTLTRDTSISAAYIDLSRLRSDDTAIYYCARMGDGAVFDYWGQGTLVTVSS VL: DIQLTQSPSSLSASVGDRVTITCRASQRISSYLNWYQQKPGKAPKVLISVASSLQSGVPSRFSGSGFGTDFTLTISSLQPEDSASYYCQQSYNTPLTFGGGTKLEIKR , please.
Result: 30
